Tested on: Staphylococcus epidermidis 3519
assay-procedure: In vitro antibacterial activity, agar dilution MIC
Format: cell-based
reported-conditions: code HH, BHI agar, 35-37° C., 20-24 hours, unit assumed
outcome-measure: Antibacterial Activity (MIC's) (µg/mL)

* CCC1OC(=O)CC(=O)C(C)C(OC2OC(C)CC(N(C)C)C2O)C(C)(OCC=Cc2cnc3ccccc3c2)CC(C)C(=O)C(C)C2NC(=O)OC12C (stereo not shown) | 0.39
* CC[C@H]1OC(=O)[C@H](C)[C@@H](O[C@H]2C[C@@](C)(OC)[C@@H](O)[C@H](C)O2)[C@H](C)[C@@H](O[C@@H]2O[C@H](C)C[C@H](N(C)C)[C@H]2O)[C@](C)(O)C[C@@H](C)C(=O)[C@H](C)[C@@H](O)[C@]1(C)O [Ery. A, Erythromycin A, reference compound] | 0.39
* CCC1OC(=O)C(CS(=O)(=O)O)C(=O)C(C)C(OC2OC(C)CC(N(C)C)C2O)C(C)(OCC=Cc2cnc3ccccc3c2)CC(C)C(=O)C(C)C2NC(=O)OC12C (stereo not shown) | 0.78

---

Test system: Streptococcus pyogenes PIU 2548
assay-procedure: In vitro antibacterial activity, agar dilution MIC
Type: cell-based
reported-conditions: code NN, BHI agar, 35-37° C., 20-24 hours, unit assumed
Experimental: Each plate was inoculated with 1:100 (or 1:10 for slow-growing strains, such as Micrococcus and Streptococcus) dilutions of up to 32 different microorganisms, using a Steers replicator block. The inoculated plates were incubated at 35-37° C. for 20-24 hours. In addition, a control plate using BHI agar with no test compound was prepared and incubated at the beginning and end of each test. A plate containing erythromycin A was also prepared to provide test-to-test comparability. […]
Here, each record is paired with measured Antibacterial Activity (MIC's) data.
outcome-measure: Antibacterial Activity (MIC's)

• C=CCC1C(=O)OC(CC)C2(C)OC(=O)NC2C(C)C(=O)C(C)CC(C)(OCC=Cc2cnc3ccccc3c2)C(OC2OC(C)CC(N(C)C)C2O)C(C)C1=O (stereo not shown) = > 100 µg/mL
• CC[C@H]1OC(=O)[C@H](C)[C@@H](O[C@H]2C[C@@](C)(OC)[C@@H](O)[C@H](C)O2)[C@H](C)[C@@H](O[C@@H]2O[C@H](C)C[C@H](N(C)C)[C@H]2O)[C@](C)(O)C[C@@H](C)C(=O)[C@H](C)[C@@H](O)[C@]1(C)O [Ery. A, Erythromycin A, reference compound] = 6.2 µg/mL
• CCC1OC(=O)C(CS(=O)(=O)O)C(=O)C(C)C(OC2OC(C)CC(N(C)C)C2O)C(C)(OCC=Cc2cnc3ccccc3c2)CC(C)C(=O)C(C)C2NC(=O)OC12C (stereo not shown) = 0.78 µg/mL
• CCC1OC(=O)CC(=O)C(C)C(OC2OC(C)CC(N(C)C)C2O)C(C)(OCC=Cc2cnc3ccccc3c2)CC(C)C(=O)C(C)C2NC(=O)OC12C (stereo not shown) = 0.2 µg/mL

---

Here, each record is paired with measured Antibacterial Activity (MIC's) data.
Tested on: Micrococcusluteus ATCC 4698
assay-procedure: In vitro antibacterial activity, agar dilution MIC
Format: cell-based, Micrococcus luteus
reported-conditions: code PP, BHI agar, 35-37° C., 20-24 hours, unit assumed
Experimental: Each plate was inoculated with 1:100 (or 1:10 for slow-growing strains, such as Micrococcus and Streptococcus) dilutions of up to 32 different microorganisms, using a Steers replicator block. The inoculated plates were incubated at 35-37° C. for 20-24 hours. In addition, a control plate using BHI agar with no test compound was prepared and incubated at the beginning and end of each test. A plate containing erythromycin A was also prepared to provide test-to-test comparability. […]
outcome-measure: Antibacterial Activity (MIC's) (µg/mL)

* CCC1OC(=O)CC(=O)C(C)C(OC2OC(C)CC(N(C)C)C2O)C(C)(OCC=Cc2cnc3ccccc3c2)CC(C)C(=O)C(C)C2NC(=O)OC12C (stereo not shown) | 0.2
* CC[C@H]1OC(=O)[C@H](C)[C@@H](O[C@H]2C[C@@](C)(OC)[C@@H](O)[C@H](C)O2)[C@H](C)[C@@H](O[C@@H]2O[C@H](C)C[C@H](N(C)C)[C@H]2O)[C@](C)(O)C[C@@H](C)C(=O)[C@H](C)[C@@H](O)[C@]1(C)O [Ery. A, Erythromycin A, reference compound] | 0.2
* CCC1OC(=O)C(CS(=O)(=O)O)C(=O)C(C)C(OC2OC(C)CC(N(C)C)C2O)C(C)(OCC=Cc2cnc3ccccc3c2)CC(C)C(=O)C(C)C2NC(=O)OC12C (stereo not shown) | 0.39

// data source = patent US6569836B2
